tested on: NCI-H23 complex spheroids with HUVEC/MSC, viability; experiment: Anticancer human tumor NCI-H23 cell line growth inhibition [RAS]; conditions: second compound 0.0316 µM; first compound 0.03 µM; stronger effect = lower value;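 further: spheroids exposed to compound for 7 days; 100% = DMSO vehicle control viability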
viability, T/C overview
experimentalReadout: viability, T/C (%)

>>> measvalue("CCc1c2c(nc3ccc(O)cc13)-c1cc3c(c(=O)n1C2)COC(=O)[C@]3(O)CC + C#Cc1c(F)ccc2cc(O)cc(-c3ncc4c(N5CC6CCC(C5)N6)nc(OCC56CCCN5CC(F)C6)nc4c3F)c12")
13.3
>>> measvalue("CC1(C)CCC(Nc2ncc(C(F)(F)F)c(-c3c[nH]c4c(P(C)(C)=O)c(C#N)ccc34)n2)CN1 (centres undefined) + C=CC(=O)N1CCN(c2nc(OCC3CCCN3C)nc3c(F)c(-c4nc(N)cc(C)c4C(F)(F)F)c(Cl)cc23)C(C)C1")
21
>>> measvalue("CCc1c2c(nc3ccc(O)cc13)-c1cc3c(c(=O)n1C2)COC(=O)[C@]3(O)CC + C=CC(=O)N1CCN(c2nc(OCC3CCCN3C)nc3c(F)c(-c4nc(N)cc(C)c4C(F)(F)F)c(Cl)cc23)C(C)C1")
4.43
>>> measvalue("CC1(C)CCC(Nc2ncc(C(F)(F)F)c(-c3c[nH]c4c(P(C)(C)=O)c(C#N)ccc34)n2)CN1 (centres undefined) + C#Cc1c(F)ccc2cc(O)cc(-c3ncc4c(N5CC6CCC(C5)N6)nc(OCC56CCCN5CC(F)C6)nc4c3F)c12")
46.9
